The following sequences are listed with their measured total protein half-life in vivo values.
methodDescription: total protein half-life in vivo (active degradation + dilution); higher = more stable protein
testSettings: wild type E. coli NCM3722; growth: C-lim chemostat; doubling time 6 h

Answered cases to consult:
[in] For the sequence shown here, MAILGLGTDIVEIARIEAVIARSGDRLARRVLSDNEWAIWKTHHQPVRFLAKRFAVKEAAAKAFGTGIRNGLAFNQFEVFNDELGKPRLRLWGEALKLAEKLGVANMHVTLADERHYACATVIIES , give the reported total protein half-life in vivo.
[out] 5.87 h

[in] For the sequence MSQFFYIHPDNPQQRLINQAVEIVRKGGVIVYPTDSGYALGCKIEDKNAMERICRIRQLPDGHNFTLMCRDLSELSTYSFVDNVAFRLMKNNTPGNYTFILKGTKEVPRRLLQEKRKTIGMRVPSNPIAQALLEALGEPMLSTSLMLPGSEFTESDPEEIKDRLEKQVDLIIHGGYLGQKPTTVIDLTDDTPVVVREGVGDVKPFL [P0AFR4] , what total protein half-life in vivo is on record?
[out] 6.18 h

Now consider the entry below.
[in] Name the recorded total protein half-life in vivo for MNGTIYQRIEDNAHFRELVEKRQRFATILSIIMLAVYIGFILLIAFAPGWLGTPLNPNTSVTRGIPIGVGVIVISFVLTGIYIWRANGEFDRLNNEVLHEVQAS [P0AF54] .
[out] 5.84 h
